Please provide measured koff for the entries that follow.
Biological target: T1, hErbB3.mFc (soluble dimeric human ErbB3 extracellular domain fused to mouse Fc) (human)
T1 construct: called dimeric
T1 chain: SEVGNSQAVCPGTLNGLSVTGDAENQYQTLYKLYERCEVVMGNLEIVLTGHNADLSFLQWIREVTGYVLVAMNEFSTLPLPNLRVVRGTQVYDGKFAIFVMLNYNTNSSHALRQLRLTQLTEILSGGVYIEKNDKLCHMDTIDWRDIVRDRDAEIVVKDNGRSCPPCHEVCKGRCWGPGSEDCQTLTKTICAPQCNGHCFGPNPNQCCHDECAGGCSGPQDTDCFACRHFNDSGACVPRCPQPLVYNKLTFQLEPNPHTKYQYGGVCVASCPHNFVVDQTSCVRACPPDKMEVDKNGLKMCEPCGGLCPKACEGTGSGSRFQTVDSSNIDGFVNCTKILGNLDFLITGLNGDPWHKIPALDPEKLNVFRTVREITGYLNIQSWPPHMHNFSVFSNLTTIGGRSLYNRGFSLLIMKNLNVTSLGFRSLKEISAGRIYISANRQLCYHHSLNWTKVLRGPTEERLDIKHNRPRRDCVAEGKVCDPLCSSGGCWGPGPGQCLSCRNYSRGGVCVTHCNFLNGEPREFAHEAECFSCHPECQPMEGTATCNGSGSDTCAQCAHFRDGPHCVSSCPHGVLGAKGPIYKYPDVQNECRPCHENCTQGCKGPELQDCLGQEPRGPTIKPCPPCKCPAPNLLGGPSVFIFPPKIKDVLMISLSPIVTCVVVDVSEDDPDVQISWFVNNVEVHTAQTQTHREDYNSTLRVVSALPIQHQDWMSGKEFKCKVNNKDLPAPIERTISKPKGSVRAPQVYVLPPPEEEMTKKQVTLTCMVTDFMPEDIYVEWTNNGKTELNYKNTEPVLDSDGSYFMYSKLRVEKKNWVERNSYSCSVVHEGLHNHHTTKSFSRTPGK
Assay: SPR (Biacore), 25 C, mAb capture format
Provide only the numeric value, understood in s⁻¹.

Returns the measured koff for the input binder. Input: H4H1819N (antibody, V domains shown, Human IgG4 Fc (H4H prefix); same variable domains as H1M1819N) VH: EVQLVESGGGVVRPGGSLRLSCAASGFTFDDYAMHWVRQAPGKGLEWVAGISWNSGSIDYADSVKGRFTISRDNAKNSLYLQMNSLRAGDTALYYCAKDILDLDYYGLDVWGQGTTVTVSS VL: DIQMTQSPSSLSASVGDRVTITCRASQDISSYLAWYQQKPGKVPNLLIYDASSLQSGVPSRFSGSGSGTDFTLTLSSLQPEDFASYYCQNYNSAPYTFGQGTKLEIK 1.54e-05

Record request: koff value, item H4H2111P (antibody, V domains shown, Fully human, human IgG4 Fc (H4H prefix)) VH: QVQLVESGGGVVQPGRSLRLSCAASGFTFNNYGMHWVRQAPGKGLAWVAVMWYSESHKYYADSVKGRFTISRDNSKNTLYLEMNSLRVEDTAIYYCARDLGDPDAFDIWGQGTMVTVSS VL: DIQLTQSPSFLSASVGDRVTITCWASQGISSYLAWYQQKPGKAPKLLIYGASTLQSGVPSRFSGSGSGTEFTLTISSLQPEDFATYYCQQLNSYPLTFGGGTKVEIKR 8.69e-06

Just for reference, patent US20140072563A1 is where these values come from.
